testTarget: FL-SMARCA4 (Homo sapiens, UniProt P51532)
Sequence (P51532 whole entry): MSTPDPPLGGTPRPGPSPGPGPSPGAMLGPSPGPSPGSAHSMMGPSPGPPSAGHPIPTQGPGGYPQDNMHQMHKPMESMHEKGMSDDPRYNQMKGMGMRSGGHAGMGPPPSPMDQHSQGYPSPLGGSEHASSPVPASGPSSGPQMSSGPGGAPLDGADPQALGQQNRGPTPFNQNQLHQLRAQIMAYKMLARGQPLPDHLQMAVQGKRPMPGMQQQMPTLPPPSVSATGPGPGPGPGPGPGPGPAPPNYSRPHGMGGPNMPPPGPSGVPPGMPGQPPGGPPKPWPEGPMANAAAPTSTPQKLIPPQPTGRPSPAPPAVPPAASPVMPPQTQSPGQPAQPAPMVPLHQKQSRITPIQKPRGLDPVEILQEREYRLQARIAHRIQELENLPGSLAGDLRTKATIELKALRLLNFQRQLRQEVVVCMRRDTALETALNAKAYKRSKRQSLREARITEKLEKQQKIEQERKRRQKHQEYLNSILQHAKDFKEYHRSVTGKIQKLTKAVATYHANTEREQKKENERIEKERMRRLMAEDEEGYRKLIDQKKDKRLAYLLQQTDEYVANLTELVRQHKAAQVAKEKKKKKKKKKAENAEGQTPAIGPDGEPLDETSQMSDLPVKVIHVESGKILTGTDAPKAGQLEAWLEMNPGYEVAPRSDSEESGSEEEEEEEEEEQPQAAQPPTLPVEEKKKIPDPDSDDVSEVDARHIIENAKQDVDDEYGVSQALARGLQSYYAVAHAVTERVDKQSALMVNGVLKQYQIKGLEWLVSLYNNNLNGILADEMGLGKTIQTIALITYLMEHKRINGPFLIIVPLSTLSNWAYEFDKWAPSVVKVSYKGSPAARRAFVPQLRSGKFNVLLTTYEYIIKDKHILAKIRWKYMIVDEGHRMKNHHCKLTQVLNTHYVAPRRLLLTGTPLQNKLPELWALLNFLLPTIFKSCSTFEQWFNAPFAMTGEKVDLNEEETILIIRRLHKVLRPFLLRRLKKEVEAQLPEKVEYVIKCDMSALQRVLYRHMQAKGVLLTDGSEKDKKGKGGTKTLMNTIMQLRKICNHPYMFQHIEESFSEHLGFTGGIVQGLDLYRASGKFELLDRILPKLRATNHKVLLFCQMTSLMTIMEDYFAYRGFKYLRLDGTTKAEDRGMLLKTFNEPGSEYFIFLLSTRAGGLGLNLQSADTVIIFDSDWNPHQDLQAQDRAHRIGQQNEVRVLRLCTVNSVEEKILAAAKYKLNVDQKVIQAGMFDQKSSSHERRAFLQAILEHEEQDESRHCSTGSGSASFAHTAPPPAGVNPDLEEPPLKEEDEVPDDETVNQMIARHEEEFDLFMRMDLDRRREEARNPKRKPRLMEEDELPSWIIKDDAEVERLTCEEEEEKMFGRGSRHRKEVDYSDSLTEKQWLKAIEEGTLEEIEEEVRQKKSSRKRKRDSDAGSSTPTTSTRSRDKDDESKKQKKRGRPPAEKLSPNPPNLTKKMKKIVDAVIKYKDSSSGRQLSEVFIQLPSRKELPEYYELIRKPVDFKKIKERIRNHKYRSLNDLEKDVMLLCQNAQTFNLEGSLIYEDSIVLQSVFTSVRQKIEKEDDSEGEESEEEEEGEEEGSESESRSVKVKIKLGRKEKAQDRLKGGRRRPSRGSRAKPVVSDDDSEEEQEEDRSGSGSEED
assayProcedure: SMARCA4 ATPase activity assay (ADP-Glo, chicken mononucleosome substrate)
assayContext: FL-SMARCA4 IC>50, Table 3c.2; ATPase assay, enzyme 5 nM, ATP 250 uM, chicken mononucleosome 10 nM, 30 min preincubation
pIC50: −log10 of the molar value.
observedProperty: pIC50

Worked set:
{"compound": "NC(=O)c1nc(C#Cc2cc(C(=O)Nc3cc(F)c(=O)n(CC(F)F)c3)sc2Cl)cs1 [Compound 111c]", "observedProperty": "pIC50", "experimentalResult": 7.58}
{"compound": "O=C(Nc1cc(F)c(=O)n(CC(F)F)c1)c1cc(C#Cc2csc(C(F)(F)F)n2)c(Cl)s1 [Compound 126c]", "observedProperty": "pIC50", "experimentalResult": 6.02}
{"compound": "O=C(Nc1cc(F)c(=O)n(CC(F)(F)CO)c1)c1cc(Cl)c(Cl)s1 [Compound 100c]", "observedProperty": "pIC50", "experimentalResult": 4.56}
{"compound": "O=C(Nc1cc(F)c(=O)n(CC(F)F)c1)c1cc(C#Cc2ccnc(-c3ncco3)c2)c(Cl)s1 [Compound 150c]", "observedProperty": "pIC50", "experimentalResult": 7.84}
{"compound": "COc1ccc(C#Cc2cc(C(=O)Nc3cc(F)c(=O)n(CC(F)F)c3)sc2Cl)cc1 [Compound 44c]", "observedProperty": "pIC50", "experimentalResult": 5.66}
{"compound": "CC#Cc1cc(C(=O)Nc2cc(F)c(=O)n(CC(F)F)c2)sc1Cl [Compound 85c]", "observedProperty": "pIC50", "experimentalResult": 6.63}
{"compound": "O=C(Nc1cc(F)c(=O)n(CC(F)F)c1)C1CCC(C(F)(F)F)O1 (stereo not drawn) [Compound 135c]", "observedProperty": "pIC50", "experimentalResult": 4.45}
{"compound": "Cc1cnc(C#Cc2cc(C(=O)Nc3cc(F)c(=O)n(CC(F)F)c3)sc2Cl)o1 [Compound 71c]", "observedProperty": "pIC50", "experimentalResult": 6.52}

1 = O=C(Nc1cc(F)c(=O)n(CC(F)F)c1)c1cc(C#CC2COC2)c(C(F)F)s1 [Compound 80c]
2 = CN1CCn2cc(C#Cc3cc(C(=O)Nc4cc(F)c(=O)n(CC(F)F)c4)sc3Cl)nc2C1 [Compound 146c]
3 = NC(=O)c1ccc(C#Cc2cc(C(=O)Nc3cc(F)c(=O)n(CC(F)F)c3)sc2Cl)cc1 [Compound 68c]
4 = Nc1cc(C#Cc2cc(C(=O)Nc3cc(F)c(=O)n(CC(F)F)c3)sc2Cl)ccn1 [Compound 124c]
Incoming: Your job: order these 4 records by pIC50, ascending. # the answer lists labels in the order requested
Outgoing: 2, 1, 3, 4
(2: 4.82, 1: 6.31, 3: 6.92, 4: 7.75)

A = O=C(Nc1cc(F)c(=O)n(CC(F)F)c1)c1cc(C#Cc2cnn(CCO)c2)c(Cl)s1 [Compound 122c]
B = Cc1cc(C#Cc2cc(C(=O)Nc3cc(F)c(=O)n(CC(F)F)c3)sc2Cl)sn1 [Compound 64c]
Incoming: // pick min by pIC50: A , B Give the label under which the chosen entry appears.
Outgoing: A

====

testTarget: FL-SMARCA4 (Homo sapiens, UniProt P51532)
assayProcedure: SMARCA4 ATPase activity assay (ADP-Glo, chicken mononucleosome substrate)
assayContext: FL-SMARCA4 IC50
observedProperty: IC50 (nM)

{"compound": "CN1CCCC(C#Cc2cc(C(=O)Nc3cc(F)c(=O)n(CC(F)F)c3)sc2Cl)C1 (stereo not shown) [Compound 140d]", "testTarget": "FL-SMARCA4 (Homo sapiens, UniProt P51532)", "observedProperty": "IC50", "experimentalResult": 1770}

I = O=C(Nc1cc(F)c(=O)n(CC(F)F)c1)c1cc(C#CC2COCCO2)c(Cl)s1 (stereo not shown) [Compound 114d]
II = CNC(=O)C#Cc1cc(C(=O)Nc2cc(F)c(=O)n(CC(F)F)c2)sc1Cl [Compound 72d]
Incoming: // pick min by IC50: I , II Give the label under which the chosen entry appears.
Outgoing: I
(I: 372 nM, II: 1310 nM)

====

testTarget: FL-SMARCA4 (Homo sapiens)
assayProcedure: SMARCA4 ATPase activity assay (ADP-Glo, chicken mononucleosome substrate)
assayContext: FL-SMARCA4 IC50, Table 3.2; ATPase assay, enzyme 5 nM, ATP 250 uM, chicken mononucleosome 10 nM, 30 min preincubation
pIC50: −log10 of the molar value.
observedProperty: pIC50

A = Cn1c(C(=O)Nc2cc(Cl)c(=O)n(CCF)c2)cnc1Cl
B = N#Cc1cc(C(=O)Nc2ccc(=O)n(CC(F)(F)F)c2)sc1C#N
Incoming: // pick min by pIC50: A , B Give the label under which the chosen entry appears.
Outgoing: A
(A: 4.66, B: 6.55)

====

testTarget: FL-SMARCA4 (Homo sapiens)
assayProcedure: SMARCA4 ATPase activity assay (ADP-Glo, chicken mononucleosome substrate)
assayContext: FL-SMARCA4 IC>50, Table 3c.2; ATPase assay, enzyme 5 nM, ATP 250 uM, chicken mononucleosome 10 nM, 30 min preincubation
observedProperty: IC50 (nM)

Worked set:
{"molecule": "O=C(Nc1cc(F)c(=O)n(CC(F)F)c1)c1cc(C#Cc2cccc3c2CNC3=O)c(Cl)s1 [Compound 137c]", "IC50 (nM)": 558}
{"molecule": "CNS(=O)(=O)c1cccc(C#Cc2cc(C(=O)Nc3cc(F)c(=O)n(CC(F)F)c3)sc2Cl)c1 [Compound 99c]", "IC50 (nM)": 80.1}
{"molecule": "CN(C)Cc1ncc(C#Cc2cc(C(=O)Nc3cc(F)c(=O)n(CC(F)F)c3)sc2Cl)n1C [Compound 148c]", "IC50 (nM)": 432}
{"molecule": "N#Cc1ccc(C#Cc2cc(C(=O)Nc3cc(F)c(=O)n(CC(F)F)c3)sc2Cl)cc1 [Compound 43c]", "IC50 (nM)": 329}
{"molecule": "CN(C)CCn1cc(C#Cc2cc(C(=O)Nc3cc(F)c(=O)n(CC(F)F)c3)sc2Cl)cn1 [Compound 123c]", "IC50 (nM)": 1070}

1 = O=C(Nc1cc(F)c(=O)n(CC(F)F)c1)c1cc(C2CN(c3ccncc3)C2)c(Cl)s1 [Compound 77c]
2 = O=C(Nc1cc(F)c(=O)n(CC(F)F)c1)c1cc(C#Cc2ccccc2)c(Cl)s1 [Compound 41c]
Incoming: Larger number for IC50: 1 , or 2 ? Give the label under which the chosen entry appears.
Outgoing: 1

a = O=C(Nc1ccc(=O)n(CC(F)F)c1)c1cc(F)c(Cl)s1 [Compound 45c]
b = O=C(Nc1cc(F)c(=O)n(CC(F)F)c1)c1cc(C#Cc2ccncn2)c(Cl)s1 [Compound 59c]
Incoming: Larger number for IC50: a , or b ? Give the label under which the chosen entry appears.
Outgoing: b
(b: 379 nM, a: 232 nM)

====

testTarget: FL-SMARCA2 (full-length human SMARCA2 isoform 1) (Homo sapiens, UniProt P51531)
Construct: FLAG tag (YKDDDDK) (C); made in house; host or cells: Sf21 insect cells (baculovirus, pFastBacI)
Sequence (P51531 with tags, fused parts or gaps): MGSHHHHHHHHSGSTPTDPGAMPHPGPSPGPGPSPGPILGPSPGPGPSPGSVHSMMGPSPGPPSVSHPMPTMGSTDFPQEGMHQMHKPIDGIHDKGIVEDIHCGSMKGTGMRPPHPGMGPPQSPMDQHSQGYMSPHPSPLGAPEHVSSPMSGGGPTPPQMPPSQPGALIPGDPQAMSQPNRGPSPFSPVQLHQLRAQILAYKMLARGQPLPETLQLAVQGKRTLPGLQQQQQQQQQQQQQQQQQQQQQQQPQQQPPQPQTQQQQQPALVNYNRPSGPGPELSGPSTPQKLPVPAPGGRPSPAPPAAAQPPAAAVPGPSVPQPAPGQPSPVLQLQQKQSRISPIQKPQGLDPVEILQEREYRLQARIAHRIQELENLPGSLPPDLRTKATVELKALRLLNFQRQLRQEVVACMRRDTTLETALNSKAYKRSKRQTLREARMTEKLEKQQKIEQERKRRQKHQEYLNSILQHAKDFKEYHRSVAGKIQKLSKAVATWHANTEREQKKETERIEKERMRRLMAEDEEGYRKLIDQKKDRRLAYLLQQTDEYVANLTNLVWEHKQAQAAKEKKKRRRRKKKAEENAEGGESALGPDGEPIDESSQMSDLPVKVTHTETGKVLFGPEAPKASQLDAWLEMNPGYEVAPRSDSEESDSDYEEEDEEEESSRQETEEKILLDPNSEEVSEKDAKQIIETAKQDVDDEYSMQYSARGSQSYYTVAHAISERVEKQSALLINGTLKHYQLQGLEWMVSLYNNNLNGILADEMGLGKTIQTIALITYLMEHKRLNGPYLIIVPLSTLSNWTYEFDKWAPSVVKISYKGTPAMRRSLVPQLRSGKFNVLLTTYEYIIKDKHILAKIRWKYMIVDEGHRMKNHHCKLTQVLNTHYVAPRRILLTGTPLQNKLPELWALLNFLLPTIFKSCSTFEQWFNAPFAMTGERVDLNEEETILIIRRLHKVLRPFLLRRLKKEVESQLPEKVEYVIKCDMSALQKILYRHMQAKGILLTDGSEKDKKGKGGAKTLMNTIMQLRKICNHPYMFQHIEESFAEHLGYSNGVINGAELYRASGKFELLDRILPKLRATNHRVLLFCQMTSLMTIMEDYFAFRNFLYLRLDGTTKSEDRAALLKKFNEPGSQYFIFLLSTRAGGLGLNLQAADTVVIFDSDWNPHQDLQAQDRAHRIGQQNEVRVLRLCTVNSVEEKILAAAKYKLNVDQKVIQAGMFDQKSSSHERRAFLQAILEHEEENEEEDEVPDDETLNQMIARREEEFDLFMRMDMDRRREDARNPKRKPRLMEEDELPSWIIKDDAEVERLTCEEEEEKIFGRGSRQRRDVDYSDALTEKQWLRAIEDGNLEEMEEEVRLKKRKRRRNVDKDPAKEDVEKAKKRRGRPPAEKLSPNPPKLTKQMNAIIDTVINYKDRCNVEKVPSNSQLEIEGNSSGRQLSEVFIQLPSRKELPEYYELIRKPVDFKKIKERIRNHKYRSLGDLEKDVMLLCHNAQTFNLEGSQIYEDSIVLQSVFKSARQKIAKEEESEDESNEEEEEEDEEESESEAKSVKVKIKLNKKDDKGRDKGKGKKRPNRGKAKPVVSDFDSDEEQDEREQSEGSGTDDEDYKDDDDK
assayProcedure: SMARCA2 ATPase activity assay (ADP-Glo, chicken mononucleosome substrate)
Format: biochemical
assayContext: Table 3.1; ATPase assay, enzyme 5 nM, ATP 250 uM, chicken mononucleosome 10 nM, 30 min preincubation
pIC50: −log10 of the molar value.
observedProperty: pIC50

Worked set:
{"structureSmiles": "CCn1cc(NC(=O)c2cc(Cl)c(Cl)[nH]2)cc(F)c1=O", "observedProperty": "pIC50", "experimentalResult": 6.22}
{"structureSmiles": "N#Cc1ncc(C(=O)Nc2cc(Cl)c(=O)n(CC(F)(F)F)c2)s1", "observedProperty": "pIC50", "experimentalResult": 7.59}
{"structureSmiles": "CCn1cc(NC(=O)c2cc(Cl)n(C)c2)ccc1=O", "observedProperty": "pIC50", "experimentalResult": 4.78}
{"structureSmiles": "N#Cc1cc(C(=O)Nc2ccc(=O)n(CCF)c2)sc1C#N", "observedProperty": "pIC50", "experimentalResult": 7.45}

a = N#Cc1sc(C(=O)Nc2cc(C#N)c(=O)n(CCF)c2)cc1Cl
b = N#Cc1cc(C(=O)Nc2cc(Cl)c(=O)n(CCF)c2)[nH]c1Cl
Incoming: // pick min by pIC50: a , b Give the label under which the chosen entry appears.
Outgoing: b
(b: 6.20, a: 6.68)

====

testTarget: FL-SMARCA4 (Homo sapiens)
assayProcedure: SMARCA4 ATPase activity assay (ADP-Glo, chicken mononucleosome substrate)
assayContext: FL-SMARCA4 IC50, Table 3.2; ATPase assay, enzyme 5 nM, ATP 250 uM, chicken mononucleosome 10 nM, 30 min preincubation
observedProperty: IC50 (µM)

Worked set:
{"compound": "O=C(Nc1cc(F)c(=O)n(CCF)c1)c1cc(Cl)c(C(O)C(F)(F)F)s1 (stereo not shown)", "unitOfMeasurement": "µM", "IC50": 42.6}
{"compound": "N#Cc1cc(C(=O)Nc2cc(F)c(=O)n(CCF)c2)[nH]n1", "unitOfMeasurement": "µM", "IC50": 0.267}

a = Cn1c(C(=O)Nc2cc(F)c(=O)n(CC(F)(F)F)c2)cnc1C#N
b = N#Cc1[nH]c(C(=O)Nc2ccc(=O)n(CC(F)(F)F)c2)cc1Cl
c = O=C(Nc1cc(Cl)c(=O)n(CC(F)(F)F)c1)c1cc(Cl)c(Cl)s1
d = CCn1cc(NC(=O)c2cc(C#Cc3cccnc3)c(Cl)s2)ccc1=O
Incoming: Parameters: sort_field (IC50), sort_dir (desc). # the answer lists labels in the order requested
Outgoing: c, a, d, b
(c: 18.6 µM, a: 6.28 µM, d: 3.66 µM, b: 1.74 µM)

1 = CCn1cc(NC(=O)c2cnc(Cl)s2)cc(Cl)c1=O
2 = O=C(Nc1cc(Cl)c(=O)n(CCF)c1)c1cc(Cl)n[nH]1
Incoming: Larger number for IC50: 1 , or 2 ? Give the label under which the chosen entry appears.
Outgoing: 2
